Each recorded value in this set is attributed to patent US20220402995A1.

Entries and their Residual activity [%]
target: T1, VLP2 (virus-like particles of AAV2) (AAV2, UniProt P03135 1-735; P03135 1-598; P03135 1-533); test: ELISA on VLP2; binding after 43°C 15 min / untreated
T1 construct: Empty AAV2 capsid; background says about 60 protein molecules, VP1:VP2:VP3 = 1:1:10; Immobilised on the ELISA plate
T1 sequence (P03135 whole entry, chain 1 of 3): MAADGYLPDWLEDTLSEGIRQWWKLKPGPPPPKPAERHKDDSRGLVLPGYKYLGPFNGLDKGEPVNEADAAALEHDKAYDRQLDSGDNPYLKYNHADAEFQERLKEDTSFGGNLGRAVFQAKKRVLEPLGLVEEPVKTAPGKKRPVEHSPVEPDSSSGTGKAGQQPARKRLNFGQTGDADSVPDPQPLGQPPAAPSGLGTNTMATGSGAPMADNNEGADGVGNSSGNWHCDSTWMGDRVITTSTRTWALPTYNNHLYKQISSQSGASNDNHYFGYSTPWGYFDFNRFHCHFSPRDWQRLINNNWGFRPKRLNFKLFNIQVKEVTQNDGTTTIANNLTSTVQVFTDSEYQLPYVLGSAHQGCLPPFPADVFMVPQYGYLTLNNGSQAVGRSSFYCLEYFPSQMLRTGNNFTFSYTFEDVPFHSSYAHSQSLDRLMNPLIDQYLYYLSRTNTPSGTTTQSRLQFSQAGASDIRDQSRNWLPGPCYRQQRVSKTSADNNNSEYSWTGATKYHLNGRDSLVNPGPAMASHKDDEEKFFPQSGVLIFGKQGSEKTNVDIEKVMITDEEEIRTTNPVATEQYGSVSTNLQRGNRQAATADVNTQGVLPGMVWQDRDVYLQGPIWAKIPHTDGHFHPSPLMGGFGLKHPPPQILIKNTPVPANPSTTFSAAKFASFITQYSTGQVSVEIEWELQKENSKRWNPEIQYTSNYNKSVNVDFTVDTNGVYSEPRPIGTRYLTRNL
T1 sequence (P03135 139-735, tags left off, chain 2 of 3): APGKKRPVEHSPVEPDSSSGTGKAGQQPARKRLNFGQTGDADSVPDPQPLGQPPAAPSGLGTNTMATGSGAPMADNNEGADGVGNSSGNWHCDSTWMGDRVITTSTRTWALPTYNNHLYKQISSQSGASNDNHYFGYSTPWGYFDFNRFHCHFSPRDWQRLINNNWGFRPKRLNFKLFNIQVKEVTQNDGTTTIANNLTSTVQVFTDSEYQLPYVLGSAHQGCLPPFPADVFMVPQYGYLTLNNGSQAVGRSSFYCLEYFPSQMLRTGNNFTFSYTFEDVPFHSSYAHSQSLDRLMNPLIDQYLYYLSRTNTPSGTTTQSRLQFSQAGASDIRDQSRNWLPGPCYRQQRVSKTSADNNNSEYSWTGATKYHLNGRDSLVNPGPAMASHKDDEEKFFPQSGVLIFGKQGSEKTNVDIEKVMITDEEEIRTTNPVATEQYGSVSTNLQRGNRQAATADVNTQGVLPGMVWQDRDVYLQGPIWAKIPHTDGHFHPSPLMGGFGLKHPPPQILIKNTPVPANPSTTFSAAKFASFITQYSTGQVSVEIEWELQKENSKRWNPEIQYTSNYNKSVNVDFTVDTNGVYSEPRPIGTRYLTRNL
T1 sequence (P03135 203-735, chain 3 of 3): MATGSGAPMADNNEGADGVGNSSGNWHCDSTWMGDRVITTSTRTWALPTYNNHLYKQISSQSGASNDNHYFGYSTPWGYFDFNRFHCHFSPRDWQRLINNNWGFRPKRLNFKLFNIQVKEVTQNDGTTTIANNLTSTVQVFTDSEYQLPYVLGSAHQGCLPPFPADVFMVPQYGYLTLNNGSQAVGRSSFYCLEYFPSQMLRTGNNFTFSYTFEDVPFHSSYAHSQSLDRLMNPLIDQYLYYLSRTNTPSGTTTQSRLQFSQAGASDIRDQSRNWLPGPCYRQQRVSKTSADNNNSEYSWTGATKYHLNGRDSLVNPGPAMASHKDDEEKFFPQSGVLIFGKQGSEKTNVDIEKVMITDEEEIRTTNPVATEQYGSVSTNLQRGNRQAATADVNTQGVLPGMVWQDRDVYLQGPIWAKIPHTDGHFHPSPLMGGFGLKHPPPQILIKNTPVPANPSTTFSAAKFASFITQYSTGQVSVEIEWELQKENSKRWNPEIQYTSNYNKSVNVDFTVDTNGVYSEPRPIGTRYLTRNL
Give the value in % but do not write % after it.

{"Binder": "AAV-binding protein No. 16 (Leu369Gln) (receptor) MGSAGESVQITLPKNEVQLNAYVLQEPPKGETYTYDWQLITHPRDYSGEMEGKHSQILKQSKLTPGLYEFKVIVEGQNAHGEGYVNVTVKPEPRKNRPPIAIVSPQFQEISLPTTSTVIDGSQSTDDDKIVQYHWEELKGPLREEKISEDTAILKLSKLVPGNYTFSLTVVDSDGATNSTTANLTVNKAVDHHHHHH", "Units": "%", "Residual activity [%]": 92.8}
{"Binder": "AAV-binding protein No. 46 (Asn329Asp, Ile366Thr, Lys368Arg) (receptor) MGSAGESVQITLPKNEVQLDAYVLQEPPKGETYTYDWQLITHPRDYSGEMEGKHSQTLRLSKLTPGLYEFKVIVEGQNAHGEGYVNVTVKPEPRKNRPPIAIVSPQFQEISLPTTSTVIDGSQSTDDDKIVQYHWEELKGPLREEKISEDTAILKLSKLVPGNYTFSLTVVDSDGATNSTTANLTVNKAVDHHHHHH", "Units": "%", "Residual activity [%]": 49.3}

# context switch: different binder, same Residual activity [%]
query: Which Residual activity [%] is reported for this binder? AAV-binding protein No. 4 (Tyr344His) (receptor) MGSAGESVQITLPKNEVQLNAYVLQEPPKGETYTHDWQLITHPRDYSGEMEGKHSQILKLSKLTPGLYEFKVIVEGQNAHGEGYVNVTVKPEPRKNRPPIAIVSPQFQEISLPTTSTVIDGSQSTDDDKIVQYHWEELKGPLREEKISEDTAILKLSKLVPGNYTFSLTVVDSDGATNSTTANLTVNKAVDHHHHHH
result: 88.2
